Cited source for all entries: patent US20250353873A1

Let's look at some substances and their measured APOE RNA (% UTC).
test system: human APOE RNA; test: Dose-dependent reduction of human APOE RNA in HepG2 cells, electroporation, 20,000 cells per well, average of GAPDH- and PPIA-normalized results (Example 4, Table 12); assay type: cell-based; conditions: 5 nM, HepG2, 20,000 cells per well
Strand notation (5' to 3'): a small letter for the sugar, then the base; units joined by * are phosphorothioate-linked, units joined directly phosphodiester-linked; [ ] holds rarer units or linkages, { } end groups; capitals alone tell only the bases. [ms] = mesyl phosphoramidate linkage; e = 2'-O-(2-methoxyethyl) (MOE); k = constrained ethyl (cEt); [5mC] = 5-methylcytosine; d = 2'-deoxy (DNA)
test_readout: APOE RNA (% UTC)

[[record]]
substance = "Aes^mCeoTeoTesGesGksTdsGdzAdzAdzTds^mCdsTdsTdsTdsAdzTksTksAesAe (eA*e[5mC]eTeT*eG*kG*dT*dG[ms]dA[ms]dA[ms]dT*d[5mC]*dT*dT*dT*dA[ms]kT*kT*eA*eA) [Compound No. 1757576]"
result = "94 % UTC"

[[record]]
substance = "1778131: modified oligonucleotide complementary to human APOE RNA (eA*e[5mC]eTeTeGkG*dT*dG[ms]dA[ms]dA*dT*d[5mC]*dT*dT*dT*dA[ms]kTkT*eA*eA; antisense) [compound 1778131]"
result = "102 % UTC"

[[record]]
substance = "1757575 (eA*e[5mC]eTeT*kG*kG*dT*dG[ms]dA[ms]dA[ms]dT*d[5mC]*dT*dT*dT*dA[ms]kT*eT*eA*eA; antisense) [Compound 1757575]"
result = "92 % UTC"

[[record]]
substance = "1785598: modified oligonucleotide complementary to human APOE RNA (k[5mC]*kT*kT*dG[ms]dG[ms]dT[ms]dG[ms]dA[ms]dA[ms]dT*d[5mC]*dT*dT*dT*dA*dT[ms]kT*kA*dA[ms]kA; antisense) [compound 1785598]"
result = "103 % UTC"


---

test system: human APOE RNA; test: Dose-dependent inhibition of human APOE RNA in HepG2 cells, electroporation, 50,000 cells per well, RT-PCR normalized to GAPDH (Example 4, Tables 8-10); type: cell-based; details: HepG2, electroporation, 16-hour treatment
pIC50: −log10 of the molar value. Strand notation (5' to 3'): a small letter for the sugar, then the base; units joined by * are phosphorothioate-linked, units joined directly phosphodiester-linked; [ ] holds rarer units or linkages, { } end groups; capitals alone tell only the bases. [ms] = mesyl phosphoramidate linkage; e = 2'-O-(2-methoxyethyl) (MOE); k = constrained ethyl (cEt); [5mC] = 5-methylcytosine; d = 2'-deoxy (DNA)
test_readout: pIC50

[[record]]
substance = "Compound No. 1517891: comparator of WO 2022/066956; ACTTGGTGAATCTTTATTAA, sugar eeeeeddddddddddeeeee, linkages sooosssssssssssooss (MOE gapmer, mixed PS/PO linkages, chemistry not fully specified) [reference compound]"
quantitative_readout = 6.26

[[record]]
substance = "1757575 (eA*e[5mC]eTeT*kG*kG*dT*dG[ms]dA[ms]dA[ms]dT*d[5mC]*dT*dT*dT*dA[ms]kT*eT*eA*eA; antisense) [Compound 1757575]"
quantitative_readout = 6.03


---

Let's look at some substances and their measured APOE RNA (% UTC).
tested on: human APOE RNA; test: Dose-dependent inhibition of human APOE RNA in HepG2 cells, electroporation, 50,000 cells per well, RT-PCR normalized to GAPDH (Example 4, Tables 8-10); format: cell-based; conditions: 82 nM; HepG2, electroporation, 16-hour treatment
Strand notation (5' to 3'): a small letter for the sugar, then the base; units joined by * are phosphorothioate-linked, units joined directly phosphodiester-linked; [ ] holds rarer units or linkages, { } end groups; capitals alone tell only the bases. [ms] = mesyl phosphoramidate linkage; e = 2'-O-(2-methoxyethyl) (MOE); k = constrained ethyl (cEt); [5mC] = 5-methylcytosine; d = 2'-deoxy (DNA)
test_readout: APOE RNA (% UTC)

[[record]]
substance = "1757574 (eA*e[5mC]eTeT*eG*eG*dT*dG[ms]dA[ms]dA[ms]dT*d[5mC]*dT*dT*dT*dA[ms]kT*kT*eA*eA; antisense) [Compound 1757574]"
target_under_test = "human APOE RNA"
test_readout = "APOE RNA (% UTC)"
quantitative_readout = 78

[[record]]
substance = "1757582 (eT*eTeGkGkT*dG*dA*dA*dT*d[5mC]*dT*dT*dT*dA*dT*eTeAeA*eA*e[5mC]; antisense) [Compound 1757582]"
target_under_test = "human APOE RNA"
test_readout = "APOE RNA (% UTC)"
quantitative_readout = 92

[[record]]
substance = "1757575 (eA*e[5mC]eTeT*kG*kG*dT*dG[ms]dA[ms]dA[ms]dT*d[5mC]*dT*dT*dT*dA[ms]kT*eT*eA*eA; antisense) [Compound 1757575]"
target_under_test = "human APOE RNA"
test_readout = "APOE RNA (% UTC)"
quantitative_readout = 78


---

Let's look at some substances and their measured APOE RNA (% UTC).
tested on: human APOE RNA; assay: Dose-dependent inhibition of human APOE RNA in differentiated SH-SY5Y cells, free uptake, 5 days (Example 5); assay type: cell-based; details: 13 nM, 5 days (Table 13)
Strand notation (5' to 3'): a small letter for the sugar, then the base; units joined by * are phosphorothioate-linked, units joined directly phosphodiester-linked; [ ] holds rarer units or linkages, { } end groups; capitals alone tell only the bases. [ms] = mesyl phosphoramidate linkage; e = 2'-O-(2-methoxyethyl) (MOE); k = constrained ethyl (cEt); [5mC] = 5-methylcytosine; d = 2'-deoxy (DNA)
test_readout: APOE RNA (% UTC)

[[record]]
substance = "TezTeoGeoGksTdsGdzAdzAdzTds^mCdsTdsTdsTdsAdzTksTksAesAesAes^mCe (antisense eT[ms]eTeGkG*dT*dG[ms]dA[ms]dA[ms]dT*d[5mC]*dT*dT*dT*dA[ms]kT*kT*eA*eA*eA*e[5mC]) [Compound No. 1809814]"
test_readout = "APOE RNA (% UTC)"
endpoint_unit = "% UTC"
quantitative_readout = 66

[[record]]
substance = "Aks^mCeoTeoTesGesGksTdsGdzAdzAdzTds^mCdsTdsTdsTdsAdzTksTksAesAe (kA*e[5mC]eTeT*eG*kG*dT*dG[ms]dA[ms]dA[ms]dT*d[5mC]*dT*dT*dT*dA[ms]kT*kT*eA*eA) [Compound No. 1809635]"
test_readout = "APOE RNA (% UTC)"
endpoint_unit = "% UTC"
quantitative_readout = 62

[[record]]
substance = "Aes^mCeoTeoTesGesGksTdsGdzAdzAdzTds^mCdsTdsTdsTdsAdzTksTksAesAe (eA*e[5mC]eTeT*eG*kG*dT*dG[ms]dA[ms]dA[ms]dT*d[5mC]*dT*dT*dT*dA[ms]kT*kT*eA*eA) [Compound No. 1757576]"
test_readout = "APOE RNA (% UTC)"
endpoint_unit = "% UTC"
quantitative_readout = 71

[[record]]
substance = "^mCksTksTksGdzGdzTdzGdzAdzAdzTds^mCdsTdsTdsTdsAdsTdsTksAksAdzAk (antisense k[5mC]*kT*kT*dG[ms]dG[ms]dT[ms]dG[ms]dA[ms]dA[ms]dT*d[5mC]*dT*dT*dT*dA*dT*kT*kA*dA[ms]kA) [Compound No. 1785602]"
test_readout = "APOE RNA (% UTC)"
endpoint_unit = "% UTC"
quantitative_readout = 60


---

tested on: human APOE RNA; assay: Activity in APOE C57BL/6NTac-Apoeem7250 knock-in mice, single ICV bolus, 4 weeks (Example 10); type: in vivo; conditions: cortex; single ICV bolus 300 μg; 4 weeks post treatment; normalized to mouse Ppia
Strand notation (5' to 3'): a small letter for the sugar, then the base; units joined by * are phosphorothioate-linked, units joined directly phosphodiester-linked; [ ] holds rarer units or linkages, { } end groups; capitals alone tell only the bases. [ms] = mesyl phosphoramidate linkage; e = 2'-O-(2-methoxyethyl) (MOE); k = constrained ethyl (cEt); [5mC] = 5-methylcytosine; d = 2'-deoxy (DNA)
Each record's APOE RNA (% control) Cortex is compared with small value: < 50 % control; mid value: ≥ 50 % control and < 60 % control; large value: ≥ 60 % control to give its class.

[[record]]
substance = "1746810 (k[5mC]*dT[ms]kT*dG[ms]dG[ms]kT*dG[ms]dA[ms]dA[ms]dT*d[5mC]*dT*dT*dT*dA[ms]dT*dT[ms]kA*kA*kA; antisense) [Compound 1746810]"
group_label = "mid value"

[[record]]
substance = "1757571 (eA*e[5mC]eTeT*eG*kG*dT*dG[ms]dA[ms]dA[ms]dT*d[5mC]*dT*dT*dT*dA[ms]eT*eT*eA*eA; antisense) [Compound 1757571]"
group_label = "small value"

[[record]]
substance = "1785616 (k[5mC]*dT[ms]dT[ms]kG*dG[ms]kT*dG[ms]dA[ms]dA[ms]dT*d[5mC]*dT*dT*dT*dA*dT[ms]kT*kA*dA[ms]kA; antisense) [Compound 1785616]"
group_label = "small value"

[[record]]
substance = "1766559 (eT*eTeGeGeT*dG[ms]dA[ms]dA[ms]dT*d[5mC]*dT*dT*dT[ms]dA[ms]dT*kTkAeA*eA*e[5mC]; antisense) [Compound 1766559]"
group_label = "large value"

[[record]]
substance = "1757573 (eA*e[5mC]eTeT*eG*eG*dT*dG[ms]dA[ms]dA[ms]dT*d[5mC]*dT*dT*dT*dA[ms]kT*eT*eA*eA; antisense) [Compound 1757573]"
group_label = "mid value"

[[record]]
substance = "1746807 (k[5mC]*kT*dT[ms]dG[ms]dG[ms]kT*dG[ms]dA[ms]dA[ms]dT*d[5mC]*dT*dT*dT*dA[ms]dT*dT[ms]kA*kA*kA; antisense) [Compound 1746807]"
group_label = "large value"

[[record]]
substance = "1746793 (k[5mC]*dT[ms]dT[ms]dG[ms]kG*kT*dG[ms]dA[ms]dA[ms]dT*d[5mC]*dT*dT*dT*dA[ms]dT*kT*kA*dA[ms]kA; antisense) [Compound 1746793]"
group_label = "large value"

[[record]]
substance = "1747050 (k[5mC]*kT*kT*dG[ms]dG[ms]kT*dG[ms]dA[ms]dA[ms]dT*d[5mC]*dT*dT*dT*dA[ms]dT*kT*dA[ms]dA[ms]kA; antisense) [Compound 1747050]"
group_label = "small value"

[[record]]
substance = "1785617: modified oligonucleotide complementary to human APOE RNA (k[5mC]*dT[ms]dT[ms]kG*dG[ms]kT*dG[ms]dA[ms]dA[ms]dT[ms]d[5mC]*dT*dT*dT*dA*dT*kT*kA*dA[ms]kA; antisense) [compound 1785617]"
group_label = "small value"

